Test system: 1301b_v1 (DNA, aptamer) CGACGTTTGCGATGAGAACGAAGTTCGAAGGTCG
Assay: ITC
Details: 500 mM NaCl, 20 mM MgCl2; 50 mM Tris pH 7.6, 25 °C
RESULT TYPE: KD (µM)
Field format: number, assumed µM, no unit text.

Worked examples, 3 compounds total:
[[record]]
smiles_text = "Nc1ncnc2c1ncn2[C@@H]1O[C@H](COP(=O)(O)OP(=O)(O)O)[C@@H](O)[C@H]1O"
tgt = "1301b_v1 (DNA, aptamer) CGACGTTTGCGATGAGAACGAAGTTCGAAGGTCG"
result_units = "µM"
quantitative_result = 4.4

[[record]]
smiles_text = "Nc1ncnc2c1ncn2[C@H]1C[C@H](O)[C@@H](COP(=O)(O)OP(=O)(O)OP(=O)(O)O)O1"
tgt = "1301b_v1 (DNA, aptamer) CGACGTTTGCGATGAGAACGAAGTTCGAAGGTCG"
result_units = "µM"
quantitative_result = 3.4

[[record]]
smiles_text = "Nc1ncnc2c1ncn2[C@@H]1O[C@H](COP(=O)(O)O)[C@@H](O)[C@H]1O"
tgt = "1301b_v1 (DNA, aptamer) CGACGTTTGCGATGAGAACGAAGTTCGAAGGTCG"
result_units = "µM"
quantitative_result = 13.2


Turning now to a further compound:
stdin: Identify measured KD corresponding to Nc1ncnc2c1ncn2[C@@H]1O[C@H](COP(=O)(O)OP(=O)(O)OP(=O)(O)O)[C@@H](O)[C@H]1O
stdout: 1.9
